# system-under-test: CtCE2 (Acetivibrio thermocellus)
# Construct: C-terminal CE2 esterase module only, residues 482-814 of the full-length enzyme, C-terminal His6 tag, pET22b, E. coli BL21
# Sequence (P10477 482-814): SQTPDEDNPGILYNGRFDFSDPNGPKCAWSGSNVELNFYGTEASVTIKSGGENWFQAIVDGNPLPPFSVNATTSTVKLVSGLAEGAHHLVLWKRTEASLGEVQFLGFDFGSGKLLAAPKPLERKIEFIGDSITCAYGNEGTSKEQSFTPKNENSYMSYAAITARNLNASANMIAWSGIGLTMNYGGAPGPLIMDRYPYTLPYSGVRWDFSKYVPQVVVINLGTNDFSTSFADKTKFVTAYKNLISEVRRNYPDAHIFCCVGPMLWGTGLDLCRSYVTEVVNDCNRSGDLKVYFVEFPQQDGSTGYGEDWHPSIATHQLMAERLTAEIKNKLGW
# method-description: isothermal titration calorimetry
# test-settings: 50 mM HEPES-Na, 25 °C; pH 8.0 with 300 mM NaCl (Methods; Figure 5 legend says pH 7.0); binds across esterase active site
Kindly state Kd for each of the entries shown.

Worked cases, Kd given:
>  <molecule>
OC[C@H]1O[C@@H](O[C@H]2[C@H](O)[C@@H](O)[C@H](O[C@H]3[C@H](O)[C@@H](O)[C@H](O[C@H]4[C@H](O)[C@@H](O)[C@H](O[C@H]5[C@H](O)[C@@H](O)C(O)O[C@@H]5CO)O[C@@H]4CO)O[C@@H]3CO)O[C@@H]2CO)[C@H](O)[C@@H](O)[C@@H]1O (stereo partly shown) [cellopentaose]

>  <Kd>
71 µM

$$$$
>  <molecule>
OC[C@H]1O[C@@H](O[C@H]2[C@H](O)[C@@H](O)[C@H](O[C@H]3[C@H](O)[C@@H](O)[C@H](O[C@H]4[C@H](O)[C@@H](O)[C@H](O[C@H]5[C@H](O)[C@@H](O)[C@H](O[C@H]6[C@H](O)[C@@H](O)C(O)O[C@@H]6CO)O[C@@H]5CO)O[C@@H]4CO)O[C@@H]3CO)O[C@@H]2CO)[C@H](O)[C@@H](O)[C@@H]1O (stereo partly shown) [cellohexaose]

>  <Kd>
33 µM

$$$$

Give Kd for each of the items listed below.
1. OC[C@H]1O[C@@H](O[C@H]2[C@H](O)[C@@H](O)[C@H](O[C@H]3[C@H](O)[C@@H](O)C(O)O[C@@H]3CO)O[C@@H]2CO)[C@H](O)[C@@H](O)[C@@H]1O (stereo partly shown) [cellotriose]
2. OC[C@H]1O[C@@H](O[C@H]2[C@H](O)[C@@H](O)[C@H](O[C@H]3[C@H](O)[C@@H](O)[C@H](O[C@H]4[C@H](O)[C@@H](O)C(O)O[C@@H]4CO)O[C@@H]3CO)O[C@@H]2CO)[C@H](O)[C@@H](O)[C@@H]1O (stereo partly shown) [cellotetraose]

Reply |
1: > 1000 µM; 2: 333 µM
